test-protocol: folding stability dG unfold (combined trypsin and chymotrypsin); higher = more stable
Quick rule: folding stability dG unfold of at least 2 kcal/mol means yes (1), below that means no (0).

Given SAGGSAGGPMSAEELARFLANEFHKKHGMPPGHRVKIPVKWRDPEDGNEQEVTIEIPIRMPKGDSAGGSAGG [r6_799_TrROS] , state whether its folding stability dG unfold is at least 2 kcal/mol. no (0)

Hi, just wondering whether SAGKKSTLTIDLPGSTVTLTYDPATGKVRITVNLGVAVAGIDPETGKPGIVTGSVTLEADIDVPPGAPISAG [r5_195_TrMRF] shows folding stability dG unfold of 2 kcal/mol or higher. yes (1)

Please indicate if the recorded folding stability dG unfold for SAGGSAGGSASMNVLVVRTKPDGTPEVTEVETGDPEKAKEEIAKRSNVTTPEGTVTVELTGVSAGGSAGGSA [r18_457_JUSTAS] meets or exceeds 2 kcal/mol. no (0)

Is reported folding stability dG unfold greater than or equal to 2 kcal/mol here: SAGGSAEETIEIEIPLEDLKPRKDGKLTEEEIKERLRKLIEELTGKKPKEITVERDENGTLRITIRSAGGSA [r15_562_TrROS_Hall] yes (1)

Exam item: decide whether the reported folding stability dG unfold for SAGGSAGGSAGKETITITLVVTDENGEKYLIRVEAKIDPKTNKITITKIEIIRLDDLKKLSAGGSAGGSAGG [r11_777_TrROS_Hall] is at least 2 kcal/mol. no (0)

Item SAGGSAGGSAGGWNYIIFTIRYEFEYKDPNGKTMKHEVEITIIIPIPPIKRDEDGKYKLSAGGSAGGSAGGS [r10_168_TrROS] with folding stability dG unfold of 2 kcal/mol or above? yes (1)

Quick check: does SAGGMKITITYDKETKTITVKITYPDGTTEELTIEVPPEKKTPEEIAEELKKLIEERFGKKVEIEIVSAGGS [r8_166_TrROS_Hall] have folding stability dG unfold greater than or equal to 2 kcal/mol? yes (1)

====

test-protocol: folding stability dG unfold from chymotrypsin proteolysis; higher = more stable
reported-metric: folding stability dG unfold
Number plus unit, in that order.

Tell me the measured folding stability dG unfold of SAGGSAGGSAGGLPPGQKYVIKMYNPNGKRQEHEFEIPPGEPFKDFEFPNGWRYDIYPVKSAGGSAGGSAGG [r7_132_TrROS] , please. 0.0841 kcal/mol

For the sequence shown here, SAGGSAGGMFYVVRLEGPDGPLRTLVRPAESLEEARAFAEALAPEGARVTVEPLEEEEAERLLGSAGGSAGG [r6_267_TrMRF] , give the reported folding stability dG unfold. 2.54 kcal/mol

Record request: folding stability dG unfold value, item SAGGSAGGSAGGTGPDTPVTIETTVESVVYEGPEVKVVETFEKKITVTIPPTANPEKVSLSAGGSAGGSAGG [r7_591_JUSTAS] -1.06 kcal/mol

I would be grateful if you could share the reported folding stability dG unfold for SAGGSAGGSGEVLLLSANSFSFSEGDGLLVVVNLPNGGYVVLPFKKGDLNLNLPSSGYSEFFGSAGGSAGGS [r12_746_TrMRF] . 1.79 kcal/mol

Give the measured folding stability dG unfold of SKTIIIEVKEEKLEEIAEELAKKLEEETGYKIKKVEIILPDGTVVRIEVDAKTKKIKIEVYKLDKNGKLLSA [r9_173_TrROS_Hall] . 2.24 kcal/mol

Reported folding stability dG unfold, sequence SAGGSAGGSAGMETRLIAVLEDGEAVFEDGGTLITVPADEDVADIPDGGGLGTIYIPKDGSAGGSAGGSAGG [r11_647_TrMRF] : ____ 0.53 kcal/mol

Quick check: folding stability dG unfold of SAGGSAGGSAGGSSVYTSPSKPIAITSRTLVPESNLVRVEAVDPSGAPIEGIIPPSATLGSAGGSAGGSAGG [r7_427_JUSTAS] ? -0.114 kcal/mol

I am curious: what folding stability dG unfold value has been reported for SAGGSAGGSAGMGSTSTSTSITPTPEGRIVVDTTTTFTDPGGVPVGSTTTTTTLPPGAAASAGGSAGGSAGG [r11_898_JUSTAS] ? 0.242 kcal/mol

Any idea what folding stability dG unfold was measured for SAGGSAGGGAAPRTRVIEVLFPVPPDVTVEEIAERLRALYPDAVLVAEAERLPDGYVRVVVTLRSAGGSAGG [r6_566_TrMRF] ? 3.54 kcal/mol

// lookup folding stability dG unfold for SAGGSAGGSAGGKIKPGQTVIFIELKITKQRDGPDGKRYMEFEIERIDIFRIPPGDNILSAGGSAGGSAGGS [r10_826_TrROS] 3.18 kcal/mol

I am curious: what folding stability dG unfold value has been reported for SAGGSAGMSTVTVPLTVELVDPNNGNLKKVIERPLTVPAELSLDEVKEIVREEAKKEGLTIAKILLSAGGSA [r15_195_JUSTAS] ? -0.0556 kcal/mol

// query folding stability dG unfold value for entry SMVYVFEVPEGDPEKAEELIRAKLEEEFGYKVESVATPGGGGARVVLVVDPVEDKAYAEVIPFAPDGSPASA [r9_173_TrMRF] 1.15 kcal/mol

// lookup folding stability dG unfold for SAGGTLTLLVEVDGLLVRVTAEVRLVYDPETDELTLEVRVRVEVRPLPAPPPPLVVVRDADGRLRLLSAGGS [r8_46_TrROS_Hall] 2.71 kcal/mol

Requested read-out: folding stability dG unfold. Entry: SAGGSKKVILIAKIPNEDKYLVLIASDSPELVKEAAKKAKKPGFYVLGEMTVEEAVKKLGLPPELFKSAGGS [r16_438_TrMRF] 2.5 kcal/mol

Which folding stability dG unfold reading was recorded for the sequence SAGGSAKVVEKDGKLVIELEVPPDMSEEELKKLAEELAKLLPPGAKIEVKYDKETKRVVIVVELKDSAGGSA [r15_210_TrROS_Hall] ? 1.79 kcal/mol

Please give the measured folding stability dG unfold for this sequence: SAGGKVTLIEVEFEGGNPTISLTVTNADGSVEAVFVSPSPTDVLYATATLTVGGHPVVVVARASKDESAGGS [r16_672_TrMRF] 2.11 kcal/mol

I am curious: what folding stability dG unfold value has been reported for SAGGSAGGSMTRTITLSKEELKKKYPNATLEEIAKDIIEKEPGVKEVTVEEFPGTVKITVTKLSAGGSAGGS [r12_590_JUSTAS] ? 2.84 kcal/mol

Please report the recorded folding stability dG unfold for SAGGKPKKTILIPLIVPPGKPESAIKALAEFLEAKGYELERIEPVPVGDRLRLVAIFRKPDGTEIKVGSAGG [r13_421_TrMRF] . 1.9 kcal/mol

# query: folding stability dG unfold of entry SAGGSAMTKEEAKEYAEKRVKEEHPGWTVLGVEVTELPGKEVLTKVTVKPPENPDKTLEFEFKFPLSAGGSA [r15_627_JUSTAS] 2.61 kcal/mol

Which folding stability dG unfold reading was recorded for the sequence LEIIEKLKFPGYKITSVSIQRTNNKVTIVIHFRHPKEYYMISLEIDPPNGGIKITEVHPIKPGESMDDMMNS [r1_383_TrROS] ? 3.75 kcal/mol

// folding stability dG unfold lookup, key: SAGNWKIEIKVKHRRTPDGYYRVTARIQIWDPKNGKPLREIPIEGPFDSPEQAERRARKKAKEILKALSAGG [r19_255_TrROS] 2.71 kcal/mol

Given the entry SAGGSAGGSVYLDPAVLAELEALRQAGLRVAEVREERVEVEGGPPRRVDVRAVVVDLPPEALAASAGGSAGG [r6_771_JUSTAS] , report its measured folding stability dG unfold. 0.621 kcal/mol

Return reported folding stability dG unfold; argument: SAGGSAGGSAGLKPEVEALVRVVLKLPEGERVVLVKVKTLEELFELDLPEVVSIEIRPLKSAGGSAGGSAGG [r17_290_TrMRF] 1.73 kcal/mol

What measured folding stability dG unfold goes with SAGEVKIEVEGLPDKTVIRITIPYTAPGVGPSALLAVLKELGLPPETKLLKVEFYEEPKTVEALVVQGSAGG [r19_186_TrMRF] ? 1.72 kcal/mol

GET /values?readout=folding stability dG unfold&item= SAGGSAGGMVIEGRIKIVSPDGGEKEIPVVLFIPESFPDANLEELAEAIAKEILPPGYKADFEGSAGGSAGG [r6_821_TrMRF] 1 kcal/mol

Quick one: folding stability dG unfold for SAGGSAGGSAGLEALKKALEALPPGEERELEIEVEVDGKLYRFRIRVEKTEDGEYKATIELESAGGSAGGSA [r18_493_TrROS_Hall] ? 4.88 kcal/mol

# query: folding stability dG unfold of entry SAGGSAGGSAGGMIKVLEKKEFTPPTGGKEYELKTLDESNGTESIIKFPKEEYKNLKIPSAGGSAGGSAGGS [r10_326_JUSTAS] 0.681 kcal/mol
